B1: POU domain, class 2, transcription factor 2, residues 200 to 269; numbered along this chain, P09086 (parent)
chain: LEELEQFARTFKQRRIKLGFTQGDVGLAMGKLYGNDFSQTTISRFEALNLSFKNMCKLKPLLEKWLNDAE

variants of: B1; test: abundance fitness (aPCA) (normalised: wild type 0, dead -1); higher = more abundant; growth selection in yeast, the domain comes from the species named; conditions: Homo sapiens
outcome_measure: abundance fitness

mutation_code=V25W test_value=-0.692
mutation_code=L18Q test_value=-0.053
mutation_code=A69Y test_value=-0.107
mutation_code=L62R test_value=-0.968
mutation_code=A28S test_value=-0.079
mutation_code=A47R test_value=-0.085
mutation_code=F37V test_value=-0.065
mutation_code=T10A test_value=-0.035
mutation_code=F37M test_value=-0.024
mutation_code=R14Y test_value=-0.149
mutation_code=D36M test_value=-0.162
mutation_code=E70W test_value=-0.073
mutation_code=E2Y test_value=-0.106
mutation_code=E46S test_value=-1.05
mutation_code=L48N test_value=-0.026
mutation_code=L66Y test_value=-0.047
mutation_code=Q13P test_value=-0.293
mutation_code=N49R test_value=-0.052
mutation_code=A28G test_value=-0.098
mutation_code=K59H test_value=-0.098
mutation_code=L50M test_value=-0.049
mutation_code=A69T test_value=0.056
mutation_code=A8Y test_value=-0.955
mutation_code=L62A test_value=-0.166
mutation_code=F7K test_value=-0.783
mutation_code=N49Q test_value=0.053
mutation_code=N54I test_value=-0.272
mutation_code=E5Y test_value=-0.161
mutation_code=C56W test_value=-0.046
mutation_code=N54V test_value=0.032
mutation_code=Q39P test_value=0.035
mutation_code=Y33T test_value=-0.016
mutation_code=F52N test_value=-0.069
mutation_code=L66A test_value=0.001
mutation_code=M55L test_value=-0.021
mutation_code=L58Q test_value=-0.194
mutation_code=G23E test_value=-0.04
mutation_code=D24L test_value=-0.215
mutation_code=Q13Y test_value=-0.169
mutation_code=T21I test_value=-0.746
mutation_code=T40Q test_value=0.009
mutation_code=L32C test_value=-0.083
mutation_code=E3R test_value=-0.162
mutation_code=Q39K test_value=-0.029
mutation_code=R44I test_value=-0.926
